Data origin: patent US20240287089A1

System: MOLT-4
protocol-description: MTS GI50, Myc-dependent panel
Assay type: cell-based
protocol-conditions: Homo sapiens, MOLT-4, 72 h; read-out: GI50
measure-name: log10 GI50 (log10 of the value in nM)
Values reflect log10 of reported GI50 (nM).

COc1cc2c3c(n(CCCNC(C)C)c(=O)c2cc1OC)-c1nc2c(cc1C3=O)OCO2    1.28
COc1cc2c3c(n(CCCN4CCOCC4)c(=O)c2cc1OC)-c1cc2c(cc1C3=O)OCO2    2.38
COc1cc2c3c(n(CCCn4ccnc4)c(=O)c2cc1OC)-c1nc2c(cc1C3=O)OCO2    1.63

According to the records, this compound CCNCCCn1c2c(c3cc(OC)c(OC)cc3c1=O)C(=O)c1cc3c(nc1-2)OCO3 displays log10 GI50 of 1.11

According to the records, this compound COc1cc2c3c(n(CCCNCCO)c(=O)c2cc1OC)-c1nc2c(cc1C3=O)OCO2 displays log10 GI50 of 1.08

According to the records, this compound COc1cc2c3c(n(CCCN4CCOCC4)c(=O)c2cc1OC)-c1nc2c(cc1C3=O)OCO2 displays log10 GI50 of 2.05

According to the records, this compound COc1cc2c3c(n(CCCn4ccnc4)c(=O)c2cc1OC)-c1cc2c(cc1C3=O)OCO2 displays log10 GI50 of 1.62
